These entries and their values trace back to ChEMBL document CHEMBL1132149.

# ASSAY SYSTEM: Prothrombin (Homo sapiens)
QUANTITY MEASURED: Ki (nM)
Enter your answer as a number in nM; do not include the unit.

Fill: Ki (Prothrombin (Homo sapiens)) for this compound CC[C@@H](C)[C@H](NC(=O)[C@H](CCC(=O)O)NC(=O)[C@H](CCC(=O)O)NC(=O)[C@H](Cc1ccccc1)NC(=O)[C@H](CC(=O)O)NC(=O)CNC(=O)CNC(=O)CNC(=O)CNC(=O)CN(C)CC(=O)[C@H](CCCNC(=N)N)NC(=O)[C@@H]1CCCN1C(=O)[C@H](N)Cc1ccccc1)C(=O)N1CCC[C@H]1C(=O)N[C@@H](CCC(=O)O)C(=O)N[C@@H](CCC(=O)O)C(=O)N[C@@H](Cc1ccc(O)cc1)C(=O)N[C@@H](CC(C)C)C(=O)N[C@@H](CCC(N)=O)C(=O)O
0.083
